# study system: sGC α1/β1 heterodimer (Homo sapiens, UniProt Q02108+Q02153)
# Construct: expressed in transfected cells; host or cells: CHO-K1 (clone #7, CHO-K1/sGC)
# test description: Cell-Based sGC Functional Assay (CASA Assay), cGMP by HTRF in CHO-K1/sGC cells
# experimental parameters: cGMP production, 1 hr at 37° C., 4P fit, presence or absence of 1 μM DETA-NO not given, read-out: IP (nM) (inflection point)
# Experimental: Biological Assay 1: Cell-Based sGC Functional Assay (CASA Assay) sGC is a heme-containing enzyme that converts GTP to secondary messenger cGMP. […] A CHO-K1 cell line stably expressing the sGC α1/β1 heterodimer was generated using a standard transfection protocol. […] The level of intracellular cGMP was determined using an HTRF-based assay kit (CisBio, 62GM2PEC), which detects the displacement of a fluorescence labeled cGMP from its specific antibody. […]
Below is a list of entries, each paired with its recorded log10(EC50) value.
Each number you see is log10 of EC50, and the unit inside the log is nM.

Prompt: Form: Entry = CC1(C(=O)NC2CC2)C(=O)Nc2nc(-c3cn4ccnc4c(Cc4ccccc4F)n3)ncc21 (single isomer, unassigned) [Example 69B] | System = sGC α1/β1 heterodimer (Homo sapiens, UniProt Q02108+Q02153) | log10(EC50) = ____
Response: 2.35

Prompt: // next record CCCc1nc(-c2ncc3c(n2)NC(=O)C3(C)c2ccc(Cl)cn2)cn2ccnc12 (centres unmarked) [Example 57A]
Response: 2.99

Prompt: // next record CC1(c2ccc(Cl)cn2)C(=O)Nc2nc(-c3cn4ccnc4c(Cc4ccc(F)cc4)n3)ncc21 (centres unmarked) [Example 42A]
Response: 0.60

Prompt: // next record CC1(c2ccc(Cl)cn2)C(=O)Nc2nc(-c3cn4ccnc4c(CC4CCC4)n3)nc(O)c21 (centres unmarked) [Example 27A]
Response: 2.81

Prompt: // next record CC1(c2ccc(F)cc2)C(=O)Nc2nc(-c3cn4ccnc4c(CCCC(F)(F)F)n3)nc(O)c21 (centres unmarked) [Example 30A]
Response: 2.64

---

# study system: sGC α1/β1 heterodimer (Homo sapiens, UniProt Q02108+Q02153)
# Construct: expressed in transfected cells; host or cells: CHO-K1 (clone #7, CHO-K1/sGC)
# test description: Cell-Based sGC Functional Assay (CASA Assay), cGMP by HTRF in CHO-K1/sGC cells
# experimental parameters: cGMP production, 1 hr at 37° C., 4P fit, presence or absence of 1 μM DETA-NO not given, read-out: IP (nM) (inflection point)
assay metric: EC50 (nM)
Write down the numeric answer in nM and omit the unit.

O=C1Nc2nc(-c3cn4ccnc4c(CCCC(F)(F)F)n3)ncc2C1(c1ccc(Cl)cc1F)C1CC1 (stereo not drawn) [Example 46A]    10
CCCCc1nc(-c2nc(O)c3c(n2)NC(=O)C3(c2ccc(Cl)cc2)C2CC2)cn2ccnc12 (stereo not drawn) [Example 23B]    204

Then there is this molecule:
Prompt: Form: Entry = CC1(c2ccc(F)cc2)C(=O)Nc2nc(-c3cn4ccnc4c(CC4CCC4)n3)nc(O)c21 (stereo not drawn) [Example 29A] | System = sGC α1/β1 heterodimer (Homo sapiens, UniProt Q02108+Q02153) | EC50 = ____
Response: 225

---

Below is a list of entries, each paired with its recorded Emax value.
# study system: sGC α1/β1 heterodimer (Homo sapiens, UniProt Q02108+Q02153)
# Construct: expressed in transfected cells; host or cells: CHO-K1 (clone #7, CHO-K1/sGC)
# test description: Cell-Based sGC Functional Assay (CASA Assay), cGMP by HTRF in CHO-K1/sGC cells
# experimental parameters: CHO-K1, percent activation relative to maximum cGMP production of Compound A (= 100%), read-out: % Act.
Write down the numeric answer in % and omit the unit.

Prompt: Dear colleague, I am looking for the recorded Emax of the following molecule: CC1(c2ccc(Cl)cn2)C(=O)Nc2nc(-c3cn4ccnc4c(CCC(F)(F)C(F)(F)F)n3)ncc21 (stereo not shown) [Example 36A]
Response: 104

Prompt: // next record O=C1Nc2nc(-c3cn4ccnc4c(CCCC(F)(F)F)n3)ncc2C1(c1ccc(Cl)cc1)C1CC1 (stereo not shown) [Example 50B]
Response: 155

Prompt: // next record O=C1Nc2nc(-c3cn4ccnc4c(CCC(F)(F)C(F)(F)F)n3)ncc2C1(c1ccc(F)cc1)C1CC1 (stereo not shown) [Example 11B]
Response: 88

---

# study system: sGC α1/β1 heterodimer (Homo sapiens, UniProt Q02108+Q02153)
# Construct: expressed in transfected cells; host or cells: CHO-K1 (clone #7, CHO-K1/sGC)
# Sequence (Q02108 1-690): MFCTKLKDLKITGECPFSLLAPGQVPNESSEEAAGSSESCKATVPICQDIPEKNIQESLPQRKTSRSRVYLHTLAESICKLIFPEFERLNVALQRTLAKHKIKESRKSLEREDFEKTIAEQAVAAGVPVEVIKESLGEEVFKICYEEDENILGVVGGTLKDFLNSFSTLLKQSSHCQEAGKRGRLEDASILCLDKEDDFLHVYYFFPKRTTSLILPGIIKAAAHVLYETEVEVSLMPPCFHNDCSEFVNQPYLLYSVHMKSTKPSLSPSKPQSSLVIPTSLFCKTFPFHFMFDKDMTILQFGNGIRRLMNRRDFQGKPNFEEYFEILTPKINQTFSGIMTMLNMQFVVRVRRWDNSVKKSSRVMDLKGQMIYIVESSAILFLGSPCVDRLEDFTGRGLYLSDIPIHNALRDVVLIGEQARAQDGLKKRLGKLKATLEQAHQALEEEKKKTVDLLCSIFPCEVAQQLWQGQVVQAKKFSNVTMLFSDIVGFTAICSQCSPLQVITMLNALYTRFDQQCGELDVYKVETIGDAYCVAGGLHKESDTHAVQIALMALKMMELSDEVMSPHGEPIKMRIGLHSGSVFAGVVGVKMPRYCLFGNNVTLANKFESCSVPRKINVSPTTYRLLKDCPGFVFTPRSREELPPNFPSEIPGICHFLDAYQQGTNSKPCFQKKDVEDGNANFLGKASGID
# Sequence (Q02153 1-619): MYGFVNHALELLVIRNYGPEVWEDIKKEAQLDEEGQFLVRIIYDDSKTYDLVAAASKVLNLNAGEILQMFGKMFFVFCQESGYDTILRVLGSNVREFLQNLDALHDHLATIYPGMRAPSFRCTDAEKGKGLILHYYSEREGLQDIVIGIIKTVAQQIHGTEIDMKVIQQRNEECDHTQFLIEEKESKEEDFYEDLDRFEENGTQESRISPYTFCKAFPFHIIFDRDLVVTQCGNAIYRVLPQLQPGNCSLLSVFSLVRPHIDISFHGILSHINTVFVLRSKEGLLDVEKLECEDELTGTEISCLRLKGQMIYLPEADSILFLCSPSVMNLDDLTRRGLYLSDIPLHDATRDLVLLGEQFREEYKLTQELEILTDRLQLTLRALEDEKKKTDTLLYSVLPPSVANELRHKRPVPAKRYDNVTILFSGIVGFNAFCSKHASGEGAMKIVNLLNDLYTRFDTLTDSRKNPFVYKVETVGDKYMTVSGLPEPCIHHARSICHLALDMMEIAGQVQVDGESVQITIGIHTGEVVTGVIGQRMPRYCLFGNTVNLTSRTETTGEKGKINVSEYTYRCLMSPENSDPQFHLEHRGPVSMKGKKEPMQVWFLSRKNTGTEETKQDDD
# test description: Cell-Based sGC Functional Assay (CASA Assay), cGMP by HTRF in CHO-K1/sGC cells
# experimental parameters: CHO-K1, percent activation relative to maximum cGMP production of Compound A (= 100%), read-out: % Act.
assay metric: Emax

Worked examples, 6 compounds total:
CCCCc1nc(-c2nc(O)c3c(n2)NC(=O)C3(c2ccc(Cl)cc2)C2CC2)cn2ccnc12 (stereo not shown) [Example 23B]    146%
CCCc1nc(-c2ncc3c(n2)NC(=O)C3(C)c2ccc(Cl)cn2)cn2ccnc12 (stereo not shown) [Example 57A]    90%
CCCCc1nc(-c2nc(O)c3c(n2)NC(=O)C3(c2ccc(Cl)cc2F)C2CC2)cn2ccnc12 (stereo not shown) [Example 33A]    111%
CCCCc1nc(-c2ncc3c(n2)NC(=O)C3(c2ccc(Cl)cc2F)C2CC2)cn2ccnc12 (stereo not shown) [Example 45A]    93%
CC1(c2ccc(F)cc2)C(=O)Nc2nc(-c3cn4ccnc4c(CCC(F)(F)C(F)(F)F)n3)ncc21 (stereo not shown)    121%
CC1(c2ccc(Cl)cc2)C(=O)Nc2nc(-c3cn4ccnc4c(CCC(F)(F)C(F)(F)F)n3)ncc21 (stereo not shown)    118%

Then there is this compound:
Prompt: Dear colleague, I am looking for the recorded Emax of the following compound: CC1(c2ccc(Cl)cc2)C(=O)Nc2nc(-c3cn4ccnc4c(OCCC4CC4)n3)nc(O)c21 (stereo not shown) [Example 94A]
Response: 90%
